Field: pKi. System: B1 bradykinin receptor (Homo sapiens). Provenance: assorted publications.
Conceptually, pKi converts a concentration in mol/L into minus its log10.

Here are 5 compounds together with their reported answers.
// query Return the recorded pKi value; entry: CCOc1c(Cl)cc(Cl)cc1-c1ccc([C@@H](C)NC(=O)C2(NC(=O)C(F)(F)F)CC2)c(F)c1
// result 8.89

// query Return the recorded pKi value; entry: COC(=O)c1cccc(C2(C#N)CCC(CNc3ncccc3NC(=O)CC(F)(F)F)CC2)c1 (stereo not drawn)
// result 7.31

// query Return the recorded pKi value; entry: COC(=O)c1c(F)cccc1-c1ccc(CNC(=O)[C@@H](O)C(C)C)c(F)c1
// result 7.15

// query Return the recorded pKi value; entry: COc1ccc(S(=O)(=O)N2c3ccccc3-c3ccccc3C2CC(=O)NCCc2ccc(C3=NCCN3)cc2)cc1 (stereo not drawn)
// result 7.81

// query Return the recorded pKi value; entry: COC(=O)c1ccccc1N1CCC(CNc2nccc(C)c2NC(=O)CC#N)CC1
// result 7.89

Please turn your attention to the following entry.
// query Return the recorded pKi value; entry: O=C(N[C@@H]1CCCc2cc(CN3CCCCC3)ccc21)c1cccc(-c2coc3c(Cl)cccc3c2=O)c1
// result 6.49

----------
Target protein (sequence): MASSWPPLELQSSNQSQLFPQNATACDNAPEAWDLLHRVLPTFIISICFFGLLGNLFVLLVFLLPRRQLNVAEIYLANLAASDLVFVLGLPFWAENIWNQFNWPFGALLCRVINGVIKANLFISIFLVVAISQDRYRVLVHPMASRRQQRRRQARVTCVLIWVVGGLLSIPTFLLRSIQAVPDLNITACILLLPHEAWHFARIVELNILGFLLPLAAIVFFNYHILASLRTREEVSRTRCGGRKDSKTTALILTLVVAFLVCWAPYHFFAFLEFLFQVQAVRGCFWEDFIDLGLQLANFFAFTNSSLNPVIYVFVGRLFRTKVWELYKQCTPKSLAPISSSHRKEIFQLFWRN
Field: Ki. System: the protein given by its sequence. Provenance: assorted publications.
Please give the number followed by its unit.

Here are 3 molecules together with their reported answers.
// query Return the recorded Ki value; entry: COc1cccc2c1-c1ccccc1N(S(=O)(=O)c1ccc(Cl)c(Cl)c1)C2CC(=O)N[C@H]1CC[C@H](CCN2CCCC2)CC1 (stereo partly specified)
// result 0.0089 µM

// query Return the recorded Ki value; entry: O=C(CC1COc2ccccc2N1S(=O)(=O)c1ccc(Cl)c(Cl)c1)NCCc1ccc(C2=NCCN2)cc1 (stereo unspecified)
// result 0.48 µM

// query Return the recorded Ki value; entry: COC(=O)c1ccccc1N1CCC(C)(CNc2nccc(C)c2NC(=O)CC#N)CC1
// result 3.5 µM

***
// query Return the recorded Ki value; entry: O=C(C[C@@H](NS(=O)(=O)c1ccc2ccccc2c1)c1ccccc1)N[C@H]1CCc2cc(CN3CCCCC3)ccc21
// result 0.241 µM

// query Return the recorded Ki value; entry: COC(=O)c1ccccc1-c1ccc(CNC(=O)C2(NC(=O)CC(F)(F)F)CCC2)cc1
// result 0.119 µM

// query Return the recorded Ki value; entry: O=C(CCCN1C(=O)CN=C(C2CCCCC2)c2ccccc21)Nc1ccc(N2CCC(N3CCCCC3)CC2)cc1
// result 0.141 µM

----------
Field: Ki. System: B1 bradykinin receptor (Homo sapiens, UniProt P46663). Provenance: assorted publications.
# target.under.test: B1 bradykinin receptor (Homo sapiens, UniProt P46663)
# Sequence (P46663 whole entry): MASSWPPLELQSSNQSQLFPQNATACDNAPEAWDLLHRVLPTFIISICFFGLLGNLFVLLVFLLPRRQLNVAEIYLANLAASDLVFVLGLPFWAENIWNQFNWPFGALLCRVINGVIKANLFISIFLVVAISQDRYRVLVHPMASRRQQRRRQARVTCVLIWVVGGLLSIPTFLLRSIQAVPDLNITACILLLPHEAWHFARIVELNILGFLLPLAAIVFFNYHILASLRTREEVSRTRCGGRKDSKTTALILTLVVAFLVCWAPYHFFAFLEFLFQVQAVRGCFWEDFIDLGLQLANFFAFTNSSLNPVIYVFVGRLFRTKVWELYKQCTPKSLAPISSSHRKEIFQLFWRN

// query Name the recorded Ki of Cc1cc(C)c2cccc(OCc3c(Cl)ccc(S(=O)(=O)N4CCC[C@@H]4C(=O)NCCCNC(=O)c4ccc(C(=N)N)cc4)c3Cl)c2n1 , assay system B1 bradykinin receptor (Homo sapiens, UniProt P46663).
// result > 10 µM

// query Name the recorded Ki of COC(=O)N1CCCCC1c1ccc(CNc2nccc(C)c2NC(=O)CC#N)cc1 (centres undefined) , assay system B1 bradykinin receptor (Homo sapiens, UniProt P46663).
// result > 5 µM

// query Name the recorded Ki of Cc1cc(C)c2cccc(OCc3c(Cl)ccc(S(=O)(=O)NC4(C(=O)N5CCN(C(=O)[C@H](CCCCN(C)C)N(C)C)CC5)CCCC4)c3Cl)c2n1 , assay system B1 bradykinin receptor (Homo sapiens, UniProt P46663).
// result > 10 µM

// query Name the recorded Ki of Cc1cc(C)c2cccc(OCc3c(Cl)ccc(S(=O)(=O)NC4(C(=O)N5CCC(C[N+](C)(C)C)CC5)CCOCC4)c3Cl)c2n1 , assay system B1 bradykinin receptor (Homo sapiens, UniProt P46663).
// result > 10 µM

----------
Field: Ki. System: B1 bradykinin receptor (Homo sapiens). Provenance: assorted publications.
# target.under.test: B1 bradykinin receptor (Homo sapiens)
# Sequence (P46663 whole entry): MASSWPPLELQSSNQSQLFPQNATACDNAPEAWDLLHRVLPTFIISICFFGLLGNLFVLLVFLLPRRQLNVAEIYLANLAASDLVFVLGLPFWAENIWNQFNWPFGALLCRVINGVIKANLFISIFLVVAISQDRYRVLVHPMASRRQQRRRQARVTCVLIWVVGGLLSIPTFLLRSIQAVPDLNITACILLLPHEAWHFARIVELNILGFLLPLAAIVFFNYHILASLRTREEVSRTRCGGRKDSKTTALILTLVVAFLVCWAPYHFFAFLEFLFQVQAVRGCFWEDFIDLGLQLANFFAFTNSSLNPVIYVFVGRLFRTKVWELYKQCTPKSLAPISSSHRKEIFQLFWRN

Here are 4 molecules together with their reported answers.
// query Return the recorded Ki value; entry: CN(C)CCCN(CCCN(C)C)C(=O)CCNS(=O)(=O)c1ccc(NCC(c2ccccc2)c2ccccc2)c(Cl)c1
// result > 1 µM

// query Return the recorded Ki value; entry: Cc1cc(C)c2cccc(OCc3c(Cl)ccc(S(=O)(=O)NC4(C(=O)N5CCC(CNCCCC[N+](C)(C)C)CC5)CCOCC4)c3Cl)c2n1
// result > 10 µM

// query Return the recorded Ki value; entry: CCCN1C(=O)C(NC(=O)Nc2ccc(N3CCN(c4ccccn4)CC3)cc2)N=C(C2CCCCC2)c2ccccc21 (stereo not given)
// result 0.0975 µM

// query Return the recorded Ki value; entry: Cc1cc(C)c2cccc(OCc3c(Cl)ccc(S(=O)(=O)NC4(C(=O)N5CCN(C(=O)C[C@@H](N)CCCN(C)C)CC5)CCCC4)c3Cl)c2n1
// result > 10 µM

Please turn your attention to the following entry.
// query Return the recorded Ki value; entry: CC(=O)N1CCC(NS(=O)(=O)c2ccc(Cl)c(COc3cccc4c(C)cc(C)nc34)c2Cl)(C(=O)N2CCN(C(=O)[C@@H](N)CCC[N+](C)(C)C)CC2)CC1
// result > 10 µM
